System: mock-infected MT-4 cells
Test: Cytotoxicity based on viability of mock-infected host cells (MTT method)
Format: cell-based
Conditions: mock-infected MT-4 cells, MTT method, 4 or 5 days at 37° C.
Reported log10 CD50 by item:
measure-name: log10 CD50 (log10 of the value in µg/mL)

* CCC(=O)Cn1c(C(=O)c2cc(C)cc(C)c2)c(C(C)C)c(=O)[nH]c1=O [Example 164] | 1.31
* Cc1cc(C)cc(Oc2c(C(C)C)c(=O)[nH]c(=O)n2CC2CC2)c1 [Example 4] | 1.10
* CCc1c(Oc2cc(C)cc(C)c2)n(Cc2c3ccccc3cc3ccccc23)c(=O)[nH]c1=O [Example 99] | 0.61
* CCc1c(C(=O)c2cc(C)cc(C)c2)n(CC2CCC2)c(=O)[nH]c1=O [Example 11] | 1.95
* COc1cccc(Cn2c(Oc3cc(C)cc(C)c3)c(C(C)C)c(=O)[nH]c2=O)c1 [Example 28] | 1.49
* CCc1c(C(=O)c2cc(C)cc(C)c2)n(Cc2ccc(OC(F)(F)F)cc2)c(=O)[nH]c1=O [Example 35] | 1.53
* Cc1cc(C)cc(Oc2c(C(C)C)c(=O)[nH]c(=O)n2Cc2ccc(OC(F)(F)F)cc2)c1 [Example 34] | 0.91
* Cc1cc(C)cc(Oc2c(C(C)C)c(=O)[nH]c(=O)n2Cc2cccnc2)c1 [Example 118] | 1.53

* * *

Tested on: HIV
Experiment: microbe, parasite or virus in culture
Assay type: cell-based
Conditions: Human immunodeficiency virus 1, MT4; HIV-infected MT-4 cells, MTT method, 4 or 5 days at 37° C.; read-out: ED50 (the source's name)
Reported EC50 by item:
measure-name: EC50 (µg/mL)

* CCc1c(C(=O)c2cc(C)cc(C)c2)n(Cc2cc(F)ccc2F)c(=O)[nH]c1=O [Example 71] | 0.004
* Cc1cc(C)cc(C(=O)c2c(C(C)C)c(=O)[nH]c(=O)n2Cn2nnc3ccccc32)c1 [Example 144] | 0.03
* CCc1c(Sc2cc(C)cc(C)c2)n(CC2CC2)c(=O)[nH]c1=O [Example 1] | 0.0027
* COc1cc(Cn2c(Sc3cc(C)cc(C)c3)c(C(C)C)c(=O)[nH]c2=O)cc(OC)c1 [Example 56] | 0.21
* CCc1c(Oc2cc(C)cc(C)c2)n(Cc2cccc(Cl)n2)c(=O)[nH]c1=O [Example 123] | 0.122
* CCc1c(Oc2cc(C)cc(C)c2)n(Cc2cccc(OC)c2)c(=O)[nH]c1=O [Example 27] | 0.014
* CCc1c(Sc2cc(C)cc(C)c2)n(Cc2cc(OC)cc(OC)c2)c(=O)[nH]c1=O [Example 55] | 0.071
* CCc1c(C(=O)c2cc(C)cc(C)c2)n(Cc2occc2C(=O)OC)c(=O)[nH]c1=O [Example 155] | 0.017
* Cc1cc(C)cc(Sc2c(C(C)C)c(=O)[nH]c(=O)n2Cc2cc(F)ccc2F)c1 [Example 68] | 0.005
* Cc1cc(C)cc(Oc2c(C(C)C)c(=O)[nH]c(=O)n2Cc2ccccn2)c1 [Example 112] | 0.029
* CCc1c(Oc2cc(C)cc(C)c2)n(Cc2ccccc2)c(=O)[nH]c1=O [Example 21] | 0.036
* CCc1c(C(=O)c2cc(C)cc(C)c2)n(CC2CCC2)c(=O)[nH]c1=O [Example 11] | 0.0027
* Cc1cc(C)cc(C(=O)c2c(C(C)C)c(=O)[nH]c(=O)n2Cc2cccc(Cl)n2)c1 [Example 126] | 0.011
* CCc1c(Oc2cc(C)cc(C)c2)n(Cc2cc(OC)cc(OC)c2)c(=O)[nH]c1=O [Example 57] | 1.37
* CCc1c(Sc2cc(C)cc(C)c2)n(Cc2cc(F)cc(F)c2)c(=O)[nH]c1=O [Example 73] | 0.016
* Cc1cc(C)cc(Sc2c(C(C)C)c(=O)[nH]c(=O)n2Cc2cc(F)cc(F)c2)c1 [Example 74] | 0.013
* Cc1cc(C)cc(C(=O)c2c(C(C)C)c(=O)[nH]c(=O)n2Cc2ccccc2)c1 [Example 24] | 0.0009
* Cc1cc(C)cc(C(=O)c2c(C(C)C)c(=O)[nH]c(=O)n2Cc2cc(C(F)(F)F)cc(C(F)(F)F)c2)c1 [Example 66] | 1.75
* CCc1c(Sc2cc(C)cc(C)c2)n(Cc2ccccc2C#N)c(=O)[nH]c1=O [Example 37] | 0.043
* Cc1cc(C)cc(Oc2c(C(C)C)c(=O)[nH]c(=O)n2Cc2ccc(OC(F)(F)F)cc2)c1 [Example 34] | 0.045
* CCc1c(Oc2cc(C)cc(C)c2)n(Cc2ccc3c(c2)C(=O)c2ccccc2C3=O)c(=O)[nH]c1=O [Example 105] | 0.52
* Cc1cc(C)cc(Sc2c(C(C)C)c(=O)[nH]c(=O)n2Cc2ccc(OC(F)(F)F)cc2)c1 [Example 32] | 0.017
* CCc1c(Oc2cc(C)cc(C)c2)n(Cn2nnc3ccccc32)c(=O)[nH]c1=O [Example 141] | 0.11
* CCc1c(C(=O)c2cc(C)cc(C)c2)n(Cc2ccc(OC(F)(F)F)cc2)c(=O)[nH]c1=O [Example 35] | 0.004
* CCc1c(Oc2cc(C)cc(C)c2)n(CC2CC2)c(=O)[nH]c1=O [Example 3] | 0.011
* COc1cc(Cn2c(Oc3cc(C)cc(C)c3)c(C(C)C)c(=O)[nH]c2=O)cc(OC)c1 [Example 58] | 0.51
* COc1cccc(Cn2c(Sc3cc(C)cc(C)c3)c(C(C)C)c(=O)[nH]c2=O)c1 [Example 26] | 0.003
* COc1cc(Cn2c(C(=O)c3cc(C)cc(C)c3)c(C(C)C)c(=O)[nH]c2=O)cc(OC)c1 [Example 60] | 0.23
